# target_entity: Neu5Ac(a2-6)GalNAc
# assay_procedure: glycan array binding signal (z-score within array); higher = stronger binding
# condition_set: glycan notation: IUPAC condensed, linker removed
The sample as a whole holds a higher share of the strongest signals than the screen did.
Kindly supply the reported glycan array binding signal (z-score) values for the records listed here.
API note: the answer field is a bare number with no unit suffix.

IN: Given MpAFP NterminalRI GFP (Marinomonas primoryensis) (protein) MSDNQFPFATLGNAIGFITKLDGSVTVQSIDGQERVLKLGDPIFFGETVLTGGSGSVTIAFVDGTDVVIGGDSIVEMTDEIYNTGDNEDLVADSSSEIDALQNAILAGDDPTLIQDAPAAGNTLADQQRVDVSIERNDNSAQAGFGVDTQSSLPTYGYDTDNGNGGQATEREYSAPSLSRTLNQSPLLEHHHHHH , state its recorded glycan array binding signal (z-score).
OUT: -0.388

IN: Could you share which glycan array binding signal (z-score) value was measured for CM2 (Cordyceps militaris) (protein) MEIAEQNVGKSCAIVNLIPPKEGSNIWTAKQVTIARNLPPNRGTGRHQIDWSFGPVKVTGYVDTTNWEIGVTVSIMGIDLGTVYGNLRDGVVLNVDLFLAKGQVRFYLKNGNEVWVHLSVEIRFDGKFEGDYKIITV ?
OUT: 0.447
